# Test system: HT29 human large intestine cell line
# Test Description: Growth inhibition test (MTT) for cytotoxic properties on tumour cell lines
# Format: cell-based
# Conditions: HT29 cells, growth checked after day 6, read-out: IC50 of the cytotoxic action on tumour cell lines, HT29
Where a SMILES comes first, the peptide text is derived from it. [ ]: non-standard residue; d: D form. The star is where a group is joined. ξ: configuration not given here. Camptothecin(20R,20-O) = CC[C@]1(O*)C(=O)OCc2c1cc1n(c2=O)Cc2cc3ccccc3nc2-1; X6 = CO[C@@H]1[C@H](O)[C@H](Oc2ccc(NC(=S)*)cc2)O[C@H](C)[C@@H]1O; ξP = O=C(O)C1CCCN1
Measured Parameter: pIC50
The meaning of pIC50 here: minus log10 of the concentration in molar units.

// returns reported pIC50 for input CC[C@]1(OC(=O)[C@H](NC(=O)[C@@H](CC(N)=O)NC(=O)[C@@H](CC(C)C)NC(=O)CNC(=O)[C@H](CC(C)C)NC(=O)C2CCCN2C(=O)CNC(=S)Nc2ccc(O[C@@H]3O[C@H](C)[C@H](O)[C@H](OC)[C@@H]3O)cc2)C(C)C)C(=O)OCc2c1cc1n(c2=O)Cc2cc3ccccc3nc2-1 (stereo partly drawn) [Example 27] (X6-G[ξP]LG[dL][dN][dV]-{Camptothecin(20R,20-O)})
7.82

---
// returns reported pIC50 for input CC[C@@]1(OC(=O)[C@H](NC(=O)[C@@H](Cc2c[nH]cn2)NC(=O)CNC(=O)[C@H](CC(C)C)NC(=O)[C@H]2CCCN2C(=S)Nc2ccc(OC3O[C@H](C)[C@H](O)[C@H](OC)[C@@H]3O)cc2)C(C)C)C(=O)OCc2c1cc1n(c2=O)Cc2cc3ccccc3nc2-1.Cl (some centres unmarked) [Example 2]
7.15

====

Entries and their IC50 values follow.
# Test system: B16F10 mouse melanoma cell line
# Test Description: Growth inhibition test (MTT) for cytotoxic properties on tumour cell lines
# Type: cell-based
# Conditions: B16F10 cells, growth checked after day 6, read-out: IC50 of the cytotoxic action on tumour cell lines, B16F10
*1 amine or outer side, *2 acyl side, *3 side chain or, on linkers, in order; H or OH if unused. Where a SMILES comes first, the peptide text is derived from it. [ ]: non-standard residue; d: D form. The star is where a group is joined. X4 = CO[C@H]1[C@H](O)[C@@H](Oc2ccc(NC(=S)*)cc2)O[C@@H](C)[C@H]1O; X2 = CC[C@@]1(O*)C(=O)OCc2c1cc1n(c2=O)Cc2cc3ccccc3nc2-1; X3 = CO[C@H]1[C@@H](O)[C@@H](C)OC(Oc2ccc(N*)cc2)[C@H]1O; CO = O=C([*:1])[*:2]
Write it as a number; the unit nM goes unstated.

Examples with answers:
// returns reported IC50 for input CC[C@@]1(OC(=O)[C@@H](NC(=O)[C@H](C)NC(=O)[C@H](CC(C)C)NC(=O)CNC(=O)[C@H](CC(C)C)NC(=O)[C@@H]2CCCN2C(=S)Nc2ccc(O[C@H]3O[C@@H](C)[C@@H](O)[C@@H](OC)[C@@H]3O)cc2)C(C)C)C(=O)OCc2c1cc1n(c2=O)Cc2cc3ccccc3nc2-1 [Example 22] (X4-PLGLAV-X2)
250

// returns reported IC50 for input CC[C@@]1(OC(=O)[C@H](NC(=O)[C@@H](Cc2c[nH]cn2)NC(=O)CNC(=O)[C@H](CC(C)C)NC(=O)[C@H]2CCCN2C(=S)Nc2ccc(OC3O[C@H](C)[C@H](O)[C@H](OC)[C@@H]3O)cc2)C(C)C)C(=O)OCc2c1cc1n(c2=O)Cc2cc3ccccc3nc2-1 (stereo partly shown) [Example 1]
150

// returns reported IC50 for input CC[C@@]1(OC(=O)[C@H](NC(=O)[C@@H](Cc2c[nH]cn2)NC(=O)[C@@H](CC(C)C)NC(=O)CNC(=O)[C@H](CC(C)C)NC(=O)[C@H]2CCCN2C(=O)Nc2ccc(OC3O[C@H](C)[C@H](O)[C@H](OC)[C@@H]3O)cc2)C(C)C)C(=O)OCc2c1cc1n(c2=O)Cc2cc3ccccc3nc2-1.Cl (stereo partly drawn) [Example 4] ({X3-CO}-[dP]LG[dL][dH][dV]-X2)
150

Please turn your attention to the following entry.
// returns reported IC50 for input CC[C@@]1(OC(=O)[C@@H](NC(=O)[C@@H](NC(=O)[C@H](CC(C)C)NC(=O)CNC(=O)[C@H](CC(C)C)NC(=O)[C@@H]2CCCN2C(=S)Nc2ccc(O[C@H]3O[C@@H](C)[C@@H](O)[C@@H](OC)[C@@H]3O)cc2)C(C)C)C(C)C)C(=O)OCc2c1cc1n(c2=O)Cc2cc3ccccc3nc2-1 [Example 15] (X4-PLGLVV-X2)
400
